System Under Test: T1, monomeric SARS-CoV-2 receptor binding domain (RBD-H6) (SARS-CoV-2, UniProt P0DTC2 319-541)
T1 construct: Made in HEK293-6E cells; also called RBD Spike; monomeric RBD
Experimental Protocol: ELISA screen
Measurement Type: Mean normalized OD (OD)
Give the quantity in OD, number only.

Solved cases (3 shown):
INSERT INTO assay_data (binder, measurement_type, uom, assay_value) VALUES
  ('Mrc2_7 CRD-mouse IgG2a-Fc fusion protein (Fc fusion) YLNHTFRLLQKPLRWKDALLLCESRNASLAHVPDPYTQAFLTQAARGLQTPLWIGLASEEGSRRYSWLSEEPLNYVSWQDEEPQHSGGCAYVDVDGTWRTTSCDTKLQGAVCGGGSGGGSGGGS', 'Mean normalized OD', 'OD', 0.002),
  ('Mrc1_3 CRD-mouse IgG2a-Fc fusion protein (Fc fusion) HGFYCYLIGSTLSTFTDANHTCTNEKAYLTTVEDRYEQAFLTSLVGLRPEKYFWTGLSDVQNKGTFRWTVDEQVQFTHWNADMPGRKAGCVAMKTGVAGGLWDVLSCEEKAKFVCKGGGSGGGSGGGS', 'Mean normalized OD', 'OD', 0.038),
  ('Klri2 CRD-mouse IgG2a-Fc fusion protein (Fc fusion) FGNNFYCVFRENSKTWVESQSACEELNSHLVIIDSKAEVENLLLFEMDGWILHRMDGTNSSRLWGNDIKIRNTLMNDSEKKNHSCHYLRGNIFMPDECSAKKTYICEGGGSGGGSGGGS', 'Mean normalized OD', 'OD', 0.001);

Now consider a different binder.
Identify measured Mean normalized OD associated with Pkd1 CRD-mouse IgG2a-Fc fusion protein (Fc fusion) GNGHCYRLVAEKAPWLQAQEQCRTWAGAALAMVDSPAIQHFLVSKVTRSLDVWIGFSSVEGTEGLDPRGEAFSLESCQNWLPGEPHPATAEHCVRLGPAGQCNTDLCSAPHSYVCEGGGSGGGSGGGS
0
